Assay: Prodrug in vivo pharmacokinetics in dogs (plasma, LC-MS-MS)
Set-up: species or system Dog (Beagle)
Details: Beagle, dog, plasma, po, 2 mg/kg, Example 71 in dog plasma after oral Example 71 (2 mg/kg active); Dog 2
OBSERVATION TYPE: half-life (min)
I only need the number, in min, no unit after it.

Can you look up the measured half-life of `Cl.N[C@H]1Cc2cc(Oc3ccccc3)ccc2N(O)C1=O` for me?
17.9

---

Assay: Prodrug in vivo pharmacokinetics in dogs (plasma, LC-MS-MS)
Set-up: species or system Dog (Beagle)
Settings: Beagle, dog, plasma, po, 1 mg/kg, Example 72 in dog plasma after oral Example 72 (1 mg/kg active); Dog 1
OBSERVATION TYPE: Cmax
Phrase the answer as number then unit, nothing more needed.

I would be grateful if you could share the reported Cmax for CN(C)C(=O)ON1C(=O)[C@@H](N)Cc2cc(Oc3ccccc3)ccc21 [Example 72] .
142 ng/mL
